# reported ΔTm at 150 µM; entries follow
target: WT STING (Homo sapiens, UniProt Q86WV6, H232R); assay: Differential Scanning Fluorimetry with WT STING; format: binding; parameters: truncated human WT STING or AQ STING (amino acid residues 140-343); 8xHis (N, cleaved yes); SUMO (N, cleaved yes); made in house; host or cells: E. coli Rosetta-gami B (DE3); details: thermal shift vs STING apoprotein; 150 μM CDN; 0.1 mg/ml truncated human WT STING; SYPRO Orange; read-out: DSF ΔTm (° C.) WT STING
Sequence (Q86WV6 140-343 H232R): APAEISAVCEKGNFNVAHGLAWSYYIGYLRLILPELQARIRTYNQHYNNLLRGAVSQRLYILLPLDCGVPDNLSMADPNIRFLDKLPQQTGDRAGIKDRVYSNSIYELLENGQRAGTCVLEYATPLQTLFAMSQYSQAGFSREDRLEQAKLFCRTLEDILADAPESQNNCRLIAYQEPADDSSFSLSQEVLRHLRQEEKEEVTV
Quick note: give the figure in °C, leave out the unit.

INSERT INTO measurements (compound, result_value) VALUES
  ('Nc1nc2c(ncn2[C@@H]2O[C@@H]3COP(=O)(S)O[C@@H]4[C@@H](OCP(=O)(O)O[C@@H]2[C@@H]3O)O[C@@H](n2cnc3c(N)ncnc32)[C@@H]4O)c(=O)[nH]1 (stereo partly drawn)', 11);

Data request: Look up ΔTm at 150 µM: Nc1ncnc2c1ncn2[C@@H]1O[C@@H]2COP(=O)(O)O[C@@H]3[C@H](O)[C@@H](COCP(=O)(O)O[C@H]2[C@H]1F)O[C@H]3n1cnc2c(N)ncnc21
Data returned: 1.6

Data request: Could you tell me which ΔTm at 150 µM is on file for Nc1nc2c(nnn2[C@@H]2O[C@@H]3OCP(=O)(O)OC4C(F)[C@H](n5cnc6c(N)ncnc65)O[C@@H]4COP(=O)(O)OC2C3O)c(=O)[nH]1 (stereo partly drawn) ?
Data returned: 19.5

###

target: WT STING (Homo sapiens, UniProt Q86WV6, H232R); assay: Differential Scanning Fluorimetry with WT STING; format: binding; parameters: truncated human WT STING or AQ STING (amino acid residues 140-343); 8xHis (N, cleaved yes); SUMO (N, cleaved yes); made in house; host or cells: E. coli Rosetta-gami B (DE3); conditions: thermal shift vs STING apoprotein; 150 μM CDN; 0.1 mg/ml truncated human WT STING; SYPRO Orange; read-out: DSF ΔTm (° C.) WT STING
MEASURED_ENDPOINT: ΔTm at 150 µM (°C)
State just the number; it will be interpreted in °C.

INSERT INTO measurements (compound, measured_endpoint, result_value) VALUES
  ('Nc1nc2c(ncn2[C@@H]2O[C@@H]3OCP(=O)(O)OC4C[C@H](n5cnc6c(N)nc(Cl)nc65)O[C@@H]4COP(=O)(O)OC2C3O)c(=O)[nH]1 (stereo partly shown) [Compound 56]', 'ΔTm at 150 µM', 9.5),
  ('Nc1nc2c(ncn2[C@@H]2O[C@@H]3OCP(=O)(O)O[C@H]4[C@@H](O)[C@H](n5cnc6c(N)ncnc65)O[C@@H]4COP(=O)(O)O[C@@H]2[C@@H]3F)c(=O)[nH]1 [Compound 60]', 'ΔTm at 150 µM', 18.1),
  ('Nc1ncnc2c1ncn2[C@@H]1O[C@@H]2COP(=O)(O)O[C@@H]3[C@H](O)[C@@H](COCP(=O)(O)O[C@H]2[C@H]1O)O[C@H]3n1cnc2c(N)ncnc21 [Compound 31]', 'ΔTm at 150 µM', 0.5);

Continue with the next compound.
Data request: Which ΔTm at 150 µM is listed for Nc1nc2c(ncn2[C@@H]2C[C@@H]3COP(=O)(O)O[C@@H]4[C@@H](OCP(=O)(O)O[C@@H]2[C@@H]3O)O[C@@H](n2cnc3c(N)ncnc32)[C@@H]4O)c(=O)[nH]1 [Compound 36] ?
Data returned: 5.8
